test: protein stability index of a GFP-peptide fusion (yeast GPS) (PSI 1-4); higher = more stable; sorted into four equal gates, so the index is relative within each strain; settings: ubr1∆
quantityKind: protein stability index
One number for each entry.

DDIINNDEPSHKKIKVA [SIR2]: 2.87
PNFTGIDKLMLSPSDQF [SSN2]: 1.61
GPRNTEEKGWVPVTKLG [RPS2]: 3.67

Batch request: protein stability index for each of the following sequences.
1. AFIDERASDLRMTIRTR [RRP43]
2. DANRNANNIVNIVSDAG [GRR1]
3. VAPFMIKYEFNGIPLKS [YMR129W/POM152]

1.39
2.97
2.75

Batch request: protein stability index for each of the following sequences.
1. ISLLKNRRKQSFVLNKN [RPN4]
2. DPDKLKPNDLVGVNKDS [RPT5]
3. VIDIEIHVLEQDGGIMG [SKI6]
4. KELDQELIIDPLFKKAL [BRN1]
5. MDSKGKITIGIQRTTES [RGR1]
6. CKVVAEMIRGRSPEEIR [SKP1]

[3.21, 3.41, 2.85, 3.07, 3.11, 1.49]

Batch request: protein stability index for each of the following sequences.
1. LFDTYHASKAIGLPRHS [RRP6]
2. NNNSSNEKEQLSFINPK [SEC65]
3. RCMMAAQYFYSGAYSYP [DIS3]
4. RCWKANIPWDVPGMPAP [PRP8]
5. LLVQKRFKYAPGTIVLY [RPS3]

1: 2.08; 2: 2.92; 3: 2.12; 4: 2.73; 5: 1.31

Batch request: protein stability index for each of the following sequences.
1. RCTKIIKGNGESDETTT [RPT1]
2. NSINNNNIKNGTNNISQ [YDL088C/ASM4]

1: 3.54; 2: 2.98

* * *

Assign protein stability index to each entry below.
experiment: protein stability index of a GFP-peptide fusion (yeast GPS) (PSI 1-4); higher = more stable; sorted into four equal gates, so the index is relative within each strain; details: ubr1∆
Answers are plain numbers.

VVDFTSLPEELKKRYDL [YMR129W/POM152]: 2.62
NTVPQVTNFNSTNEDQN [SRB5]: 2.9
VKLGLNSKMPTRFPPAV [PRP8]: 2.73
TLVEIFLERKCVHMVYE [SSN3]: 1.75
TQLSYLISSSLSNLSKD [YCS4]: 2.13

Batch request: protein stability index for each of the following sequences.
1. PGDVLDKDAFIPKLKPA [SNU114]
2. TMGMRALLKLSVKLKQK [DIS3]
3. LIDSLPGVDVSAEEQLR [SRB7]
4. SFFHQSNMQKSLLPYYH [RPN3]
5. MATIASEYSSEASNTPI [PRE7]
6. ETSSDGSKSDGSAATSG [RPN1]

1.71
1.33
1.84
1.9
2.93
3.3

Batch request: protein stability index for each of the following sequences.
1. SIGSDILTAEKMRGNGN [RRP4]
2. SKEETVDFIKHSLSQAI [PRE3]
3. MVPKRSTIITKAINQEL [YCS4]

1. 3.32
2. 2.7
3. 2.24

Batch request: protein stability index for each of the following sequences.
1. FAKEHNATVNLAMEAIL [YJR042W/NUP85]
2. GSKIRVMWGKVTRTHGN [RPL33A]
3. DQLSTISMILRNISFSD [SWI1]
4. TATTGKRKPAKSSSNRS [RPN4]

1: 2.63; 2: 2.78; 3: 2.31; 4: 2.85

Batch request: protein stability index for each of the following sequences.
1. CTLTADGAYALSASWDK [ASC1]
2. AFEAELSNIPLLLITHH [ARP9]
3. SYTAFSRLTLLLRALKT [PRP8]
4. ILVPDLYHLVIMKFQSL [ECM29]

3.19
1.58
1.25
1.38

Batch request: protein stability index for each of the following sequences.
1. TLVSTDNYFNLQLNEAE [SMX3]
2. DQIEKLREVVELPLLSP [RPT1]
3. VVKGLPDISRAVINIRD [RPO31]
4. NANTVFSERAAMFAALQ [SWI1]
5. PGDGSSYINVTFRAVVF [RPC25]
6. IVLIKGISSAYIKSATL [SNU114]
7. LFKKITNVNPSKNFNVI [YML103C/NUP188]

2.79
2.94
2.47
2.38
2.08
2.52
2.39

Give the value of protein stability index reported for the following: QLSNGIVVATEHNPSAH [COR1] 2.52

Hello, the source for this data is the supplement of paper PMC9732359, in case you need it.
